// apparent KD of MS2 coat protein lookup, one value per entry
test system: MS2 coat protein; experiment: apparent KD of MS2 coat protein; designed switch direction (-1 OFF switch, 1 ON switch): 1; higher = weaker reporter binding; settings: Eterna round: R95; input ligand: none
State the value, then name its unit.

Answered cases to consult:
## Task Recorded apparent KD of MS2 coat protein for AGCUGUGGAAAACUAUAGCAAAAGUAUGUACAUGAGGAUCACCCAUGUCAUGUACAAGCUUUUUGCUCGUCUUAAAA [ak 5 mod of one Eli's designs.] (puzzle: Sensor for hsa-mir-208a) , please?
## Result 0.0904 µM

## Task Recorded apparent KD of MS2 coat protein for GUAAAACAUGAGGAUCACCCAUGUCAUCUAAGUCGAGGAUAUGGGAAUUAAUUAAUUAAACCAGAAGGCGAAAUUG [Mat - Same State 1 - D97] (puzzle: Same State 1) , please?
## Result 0.606 µM

## Task Recorded apparent KD of MS2 coat protein for UCAAGCGUUUGGCUCGUCUUAUGUUUUGUACAUGAGGAUCACCCAUGUUUUGUACGAUCCAGUUAGAUGGUAUUUUG [JR_SHM208A_Sub038] (puzzle: Sensor for hsa-mir-208a) , please?
## Result 0.0546 µM

## Task Recorded apparent KD of MS2 coat protein for AGUCCAGCCUGAGCUGGACAAAAGCAUGUACAUGAGGAUCACCCAUGUUCAUGUACAAGCUUUUUGCUCGUCUUGGA [salish99_208a_r3_103x] (puzzle: Sensor for hsa-mir-208a) , please?
## Result 0.505 µM

More entries:
## Task Recorded apparent KD of MS2 coat protein for GUAUCUACAGGUUUUUUAGCUCGUCUGAUACAUGAGGAUCACCCAUGUUAUAGCCCUGUGCUUGCGCAGGGCUGAGG [Sensor for hsa-mir-208a ( MOD of Tearor v.4 )] (puzzle: Sensor for hsa-mir-208a) , please?
## Result 0.0493 µM

---

system: MS2 coat protein; test: apparent KD of MS2 coat protein; designed switch direction (-1 OFF switch, 1 ON switch): 1; higher = weaker reporter binding; conditions: input ligand: microRNA oligo, concentration not stated
// apparent KD of MS2 coat protein lookup, one value per entry
The answer is to be given in nM; state only the numeric part.

Answered cases to consult:
## Task Recorded apparent KD of MS2 coat protein for AGCUAUUAAUCAGGAUAUAGGGACAUGAGGAUCACCCAUGUAUACAUGAUGAAAUGUGAUCACGUCUAGAAGGGAUUACUAACA [SameState NG2 #40] (Eterna round: R96, puzzle: Same State NG 2) , please?
## Result 299

## Task Recorded apparent KD of MS2 coat protein for GGACGUCGAUAAUAUAAUCUCACAUGAGGAUCACCCAUGUCACAGGAUAUGGAUCCUAAUUGGAUCCAGAAGGGUGCGACGUCC [Fiskers NG3ss - 35] (Eterna round: R96, puzzle: Same State NG 3) , please?
## Result 235

## Task Recorded apparent KD of MS2 coat protein for UGGUACAUGGGAGGAUAUGGGCAUGAGACAUGAGGAUCACCCAUGUAUUAAAAGCCGAGAGGCAUCUAGAAGGCCCAUGUACCU [JL SSNG1 3.89] (Eterna round: R96, puzzle: Same State NG 2) , please?
## Result 80.2

## Task Recorded apparent KD of MS2 coat protein for AUUAUUUAUGCAGGAUAUGAUUAACAUGAGGAUCACCCAUGUGGUGUUGUGAGUAAGGAGAGUGAUCAGAAGGGCAUUUUUUGU [JMF's solution 54] (Eterna round: R96, puzzle: Same State NG 2) , please?
## Result 531

Now for the sequence whose apparent KD of MS2 coat protein we want.
## Task Recorded apparent KD of MS2 coat protein for AGCUAUUAAUCAGGAUAUAGGGACAUGAGGAUCACCCAUGUAUACAUGAUGAAAUGUGGUCACGUCUAGAAGGGAUUACUAACA [SameState NG2 #41] (Eterna round: R96, puzzle: Same State NG 2) , please?
## Result 184

---

tested on: MS2 coat protein; assay: apparent KD of MS2 coat protein; designed switch direction (-1 OFF switch, 1 ON switch): -1; higher = weaker reporter binding; conditions: input ligand: none
Reported property: apparent KD of MS2 coat protein (nM)
The answer is to be given in nM; state only the numeric part.

Answered cases to consult:
## Task Recorded apparent KD of MS2 coat protein for GCUUCUGGGCAAGGAUAUCCUGCGCUGUUCUGGUUCGUGUCUGUCACAUGAGGAUCACCCAUGUGGGAGAAGGUGCCUGUGGUG [Design 69] (Eterna round: R96, puzzle: Exclusion NG 2) , please?
## Result 19.5

## Task Recorded apparent KD of MS2 coat protein for GCUCAGAUGACAGGAUAUCACGCCUGGCAGAUGGGCGACAUGAGGAUCACCCAUGUCCAGCACGAUGAGAAGGGUUAUCGGGCG [Ririorti] (Eterna round: R96, puzzle: Exclusion NG 2) , please?
## Result 96.4

## Task Recorded apparent KD of MS2 coat protein for ACAAGCUUUUAGAUUUUCAACAUGAGGAUCACCCAUGUUCGUCUUAUGCUCGGGCUUGGGCGGUGUCCGGGUUUGGG [JL TOV1 3.78 sellena mod] (Eterna round: R97, puzzle: Sensor, turn-off variant 1) , please?
## Result 39.2

## Task Recorded apparent KD of MS2 coat protein for AGAGUGCUGCGAGGAUAUACAUGAGGAUCACCCAUGUUUUCGUGUGAGGCAAAGCCUCACACGAUGUAGAAGGCGCAGUACUCA [Mat - Exclusion NG 2 - Mod of JL - D36] (Eterna round: R96, puzzle: Exclusion NG 2) , please?
## Result 14.6

## Task Recorded apparent KD of MS2 coat protein for CCGUCGAUAGGAUAUACUCCAAGCGAUGGGUGAACCUUUGGACUUGAGGAUCACCCAAGUAGAAGGAUUGACUU [Aorbete] (Eterna round: R97, puzzle: Exclusion 2) , please?
## Result 71

More entries:
## Task Recorded apparent KD of MS2 coat protein for UUAGCGUAUGUAAGGAUAUGCUGGUCUAAUGAUCAGCAGAAGGUACAUGAGGAUCACCCAUGUGGAUUCGUUAU [Mod of JL 8 - Jieux - Brourd's mod of Exclusion 4] (Eterna round: R97, puzzle: Brourd's mod of Exclusion 4) , please?
## Result 30

## Task Recorded apparent KD of MS2 coat protein for CUAAAUCAUGUAGGAUAUGCGUAGCGAAGCUAUGCAGAAGGACAUGAGGAUCACCCAUGUUCUUCCGUCUGCGUACAGACGGAA [Mat - Exclusion NG 1 - Mod of JL - D29] (Eterna round: R96, puzzle: Exclusion NG 1) , please?
## Result 38.2

## Task Recorded apparent KD of MS2 coat protein for CUAGCGAAUGUAGGAUAUCGGACUGUUUCAGUCUGAGAAGGACAUGAGGAUCACCCAUGUAUAGCUACGUGAGUAGCACGCUAG [JL ENG1 3.90] (Eterna round: R96, puzzle: Exclusion NG 1) , please?
## Result 21.7

## Task Recorded apparent KD of MS2 coat protein for AGAACAUCAGGAUAUCCAUGACACUACAUGAGGAUCACCCAUGUGAAUCUCCUCAAGGCGGGAGAAGGGAUGUUUG [Eternabot (L1) Solution 34] (Eterna round: R97, puzzle: Exclusion 5) , please?
## Result 86.7

---

tested on: MS2 coat protein; assay: apparent KD of MS2 coat protein; designed switch direction (-1 OFF switch, 1 ON switch): -1; higher = weaker reporter binding; details: Eterna round: R95; input ligand: microRNA oligo, concentration not stated
Would you mind labelling by apparent KD of MS2 coat protein? At or over 60 nM is Yes, under is No.

Illustrative cases are given below, each with its answer.
## Task Assess whether reported apparent KD of MS2 coat protein for AAAGCGUGAGGAUAUGAGGCGCCGGGCCGGUUGGUGCGGAUUCAGAAGGCACAUGAGGAUCACCCAUGUCGGUA [Excls4-IV] (puzzle: Exclusion 4) sits at 60 nM or higher.
## Result No

## Task Assess whether reported apparent KD of MS2 coat protein for AGCAUGUAAGGAUAUGCAACACAGCUUUCAAUCGCUGUGCCGCAGAAGGUACAUGAGGAUCACCCAUGUGCUCC [Anesonza] (puzzle: Exclusion 4) sits at 60 nM or higher.
## Result Yes

## Task Assess whether reported apparent KD of MS2 coat protein for AUAGCUCGUGUUAGGAUAUCCGCAUAUUUUACAUAGGAGAAGGAACAUGAGGAUCACCCAUGUAAUAGAAAAGA [Maenri] (puzzle: Brourd's mod of Exclusion 4) sits at 60 nM or higher.
## Result Yes

More entries:
## Task Assess whether reported apparent KD of MS2 coat protein for UAAAACUGAGGAUAUACAUGAGGAUCACCCAUGUCAAUUGACAGCGGCGUGGCAAAAGGUAGAAGGCAGGCGGU [Lerete] (puzzle: Exclusion 3) sits at 60 nM or higher.
## Result Yes

## Task Assess whether reported apparent KD of MS2 coat protein for GUGGUACAUGAGGAUCACCCAUGUUAGGAUAUCGCGUGAGGUUUUACUUCCGCACACGCGAGAAGGGACGUCUU (puzzle: Exclusion 1) sits at 60 nM or higher.
## Result No
